Taken from patent US20080213836.

Km values for the proteins below.
# targetOfAssay: T1, Gly-Asp-Asp-Asp-Asp-Lys-β-naphthylamide
# T1 chain: GDDDDK
quantityName: Km (µM)

protein	quantityName	measuredResult
Bovine EP serine protease (New England Biolabs) (protein) IVGGSDSREGAWPWVVALYFDDQQVCGASLVSRDWLVSAAHCVYGRNMEPSKWKAVLGLHMASNLTSPQIETRLIDQIVINPHYNKRRKNNDIAMMHLEMKVNYTDYIQPICLPEENQVFPPGRICSIAGWGALIYQGSTADVLQEADVPLLSNEKCQQQMPEYNITENMVCAGYEAGGVDSCQGDSGGPLMCQENNRWLLAGVTSFGYQCALPNRPGVYARVPRFTEWIQSFLH	Km	500
Medaka EP-1 serine protease domain mutant E173A (protein) VVGGVNAEKGAWPWMVSLHWRGRHGCGASLIGRDWLLTAAHCVYGKNTHLQYWSAVLGLHAQSSMNSQEVQIRQVDRIIINKNYNRRTKEADIAMMHLQQPVNFTEWVLPVCLASEDQHFPAGRRCFIAGWGRDAEGGSLPDILQEAEVPLVDQDACQRLLPEYTFTSSMLCAGYPEGGVDSCQGDSGGPLMCLEDARWTLIGVTSFGVGCGRPERPGAYARVSAFTSWIAETRRSSFSDLD	Km	300
